Where do the numbers come from? From paper doi:10.1101/2024.07.16.603720v1.

Reported values of IC50 for individual entries
Molecular target: sDacC (sPBP5/6) (Acinetobacter baumannii)
Sequence (G1C735 20-367): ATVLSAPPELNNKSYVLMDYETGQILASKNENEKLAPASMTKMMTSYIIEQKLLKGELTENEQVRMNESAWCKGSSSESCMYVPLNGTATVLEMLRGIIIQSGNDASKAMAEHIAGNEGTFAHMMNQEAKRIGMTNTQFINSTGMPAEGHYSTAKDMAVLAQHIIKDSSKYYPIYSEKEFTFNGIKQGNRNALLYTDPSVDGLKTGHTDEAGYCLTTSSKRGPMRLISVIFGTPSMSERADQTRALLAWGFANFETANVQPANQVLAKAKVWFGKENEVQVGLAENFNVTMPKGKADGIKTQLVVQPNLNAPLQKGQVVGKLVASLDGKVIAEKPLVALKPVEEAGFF
Assay: biochemical
Return type: number; implicit unit µM.

[
  {
    "Structure": "C[C@]1(Cn2ccnn2)[C@H](C(=O)O)N2C(=O)C[C@H]2S1(=O)=O",
    "IC50 / µM": 1830
  },
  {
    "Structure": "CC1(C)[C@H](C(=O)O)N2C(=O)C[C@H]2S1(=O)=O",
    "IC50 / µM": 184
  }
]

Fill in IC50 for CCN1CCN(C(=O)N[C@@H](C(=O)N[C@@H]2C(=O)N3[C@@H]2SC(C)(C)[C@@H]3C(=O)O)c2ccccc2)C(=O)C1=O tested with sDacC (sPBP5/6) (Acinetobacter baumannii).
539
